protocol_description: Oral bioavailability in rat at 2 mg/kg via gavage measured over 24 hrs
Type: ADME, organism-based
test_parameters: in vivo
quantity_name: bioavailability
Enter the number, and then the unit.

Incoming: Find the measured bioavailability of Cc1nnc(N2C[C@H]3CC[C@@H](C2)[C@@H]3Nc2nc3c(O[C@@H](C)C(F)(F)F)ccc(C(F)(F)F)n3n2)o1 and report it.
Outgoing: 33%

====

# fraction unbound per entry
protocol_description: Fraction unbound in human plasma
Format: ADME, cell-free

compound	quantity_name	value_measured
Cc1noc(N2C[C@H]3CC[C@@H](C2)[C@@H]3Nc2nc3c(OCC(F)(F)C(F)(F)F)cccn3n2)n1	fraction unbound	0.055
Cc1noc(N2C[C@H]3CC[C@@H](C2)[C@@H]3Nc2nc3c(OCC(F)(F)F)ccc(C(F)(F)F)n3n2)n1	fraction unbound	0.017
Cc1nsc(N2CC[C@@H](Nc3nc4c(-c5ccc(F)c(F)c5F)cccn4n3)C(F)(F)C2)n1	fraction unbound	0.0003
Cc1cc(N2C[C@H]3CC[C@@H](C2)[C@@H]3Nc2nc3c(OCC(F)(F)F)ccc(C(F)(F)F)n3n2)sn1	fraction unbound	0.002
Cc1cc(N2C[C@H]3CC[C@@H](C2)[C@@H]3Nc2nc3c(OCC(F)(F)C(F)(F)F)cccn3n2)on1	fraction unbound	0.02

// next item, fraction unbound requested
Incoming: Find the measured fraction unbound of Cc1cc(N2C[C@H]3CC[C@@H](C2)[C@@H]3Nc2nc3c(OCC(F)(F)F)cccn3n2)sn1 and report it.
Outgoing: 0.017

====

# fraction unbound per entry
protocol_description: Fraction unbound in rat plasma
Type: ADME, cell-free
Answer with the value's number alone.

Cc1nnc(N2C[C@H]3CC[C@@H](C2)[C@@H]3Nc2nc3c(O[C@@H](C)C(F)(F)F)ccc(C(F)(F)F)n3n2)o1 0.059
Cc1cc(N2C[C@H]3CC[C@@H](C2)[C@@H]3Nc2nc3c(OCC(F)F)ccc(C(F)(F)F)n3n2)ncn1 0.01

// next item, fraction unbound requested
Incoming: Find the measured fraction unbound of Cc1noc(N2C[C@H]3CC[C@@H](C2)[C@@H]3Nc2nc3c(OCC(F)(F)F)ccc(C(F)(F)F)n3n2)n1 and report it.
Outgoing: 0.046

====

test_target: Gamma-secretase
protocol_description: Modulation of gamma secretase in human H4 cells over expressing human APP695 harboring K595N/M596L Swedish double mutant assessed as reduction in Abeta42 production after 24 hrs by Alphalisa assay
Format: cell-based
Rule: measured IC50 below 20 nM gets satisfied; anything equal to or greater than 20 nM gets not satisfied.

Worked examples follow.
Cc1nsc(N2CC[C@@H](Nc3nc4c(-c5ccc(F)c(F)c5F)cccn4n3)C(F)(F)C2)n1 not satisfied
Cc1nnc(N2C[C@H]3CC[C@@H](C2)[C@@H]3Nc2nc3c(O[C@@H](C)C(F)(F)F)ccc(C(F)(F)F)n3n2)o1 not satisfied
Cc1cc(N2C[C@H]3CC[C@@H](C2)[C@@H]3Nc2nc3c(OCC(F)(F)F)cccn3n2)sn1 satisfied

Incoming: Does this compound meet the criterion IC50 < 20 nM? FC(F)(F)COc1cccn2nc(N[C@@H]3[C@@H]4CC[C@H]3CN(c3ccnc(C(F)(F)F)c3)C4)nc12
Outgoing: not satisfied

Incoming: Does this compound meet the criterion IC50 < 20 nM? Cc1cc(N2C[C@H]3CC[C@@H](C2)[C@@H]3Nc2nc3c(OCC(F)(F)F)ccc(C(F)(F)F)n3n2)sn1
Outgoing: satisfied
